B1: C1orf55 (parent)
chain: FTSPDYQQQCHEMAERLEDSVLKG

Variants of: B1
Experiment: protein stability index of a GFP-peptide fusion (GPS, HEK-293T) (PSI 1-6); higher = more stable;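 further: lentivirally expressed fusions sorted by FACS into six bins by GFP to DsRed ratio, PSI derived from sequencing read proportions per bin multiplied by bin number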
Conditions: c terminus: a fixed tail appended
Rule: protein stability index of 2 or more gives true (1); anything lower gives false (0).

Query :: Does E15W have a reported protein stability index of at least 2?
Result :: false (0)

Query :: Confirm if protein stability index reported for the variant A14C is 2 or above.
Result :: true (1)

Query :: Is it the case that L22K has protein stability index reaching or exceeding 2?
Result :: true (1)

Query :: Dear colleague, could you confirm whether L22F has protein stability index at or above 2?
Result :: false (0)

Query :: Entry L17A : is its protein stability index no less than 2?
Result :: true (1)

Query :: Identify whether the reported protein stability index of the following variant is 2 or greater: Q7S
Result :: true (1)

Query :: protein stability index >= 2 for V21M ?
Result :: false (0)

Query :: Item A14K with protein stability index of 2 or above?
Result :: true (1)

Query :: Hi, just wondering whether D5T shows protein stability index of 2 or higher.
Result :: true (1)

Query :: Could you please find out whether K23T has protein stability index that meets 2 or exceeds it?
Result :: true (1)
